target: Aminopeptidase N (Plasmodium falciparum (isolate 3D7)) (UniProt O96935); assay: malaria alanyl aminopeptidase activity blockers – biochemical, fluorogenic H-Leu-NHMec substrate, 1536-well (AID 1445); conditions: recombinant M1AAP, H-Leu-NHMec fluorogenic kinetic assay; at 30 µM, stronger effect = higher value unless noted;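 also: plate controls were DMSO full reaction for no effect and no enzyme background for full effect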
Sequence (O96935 whole entry, looked up): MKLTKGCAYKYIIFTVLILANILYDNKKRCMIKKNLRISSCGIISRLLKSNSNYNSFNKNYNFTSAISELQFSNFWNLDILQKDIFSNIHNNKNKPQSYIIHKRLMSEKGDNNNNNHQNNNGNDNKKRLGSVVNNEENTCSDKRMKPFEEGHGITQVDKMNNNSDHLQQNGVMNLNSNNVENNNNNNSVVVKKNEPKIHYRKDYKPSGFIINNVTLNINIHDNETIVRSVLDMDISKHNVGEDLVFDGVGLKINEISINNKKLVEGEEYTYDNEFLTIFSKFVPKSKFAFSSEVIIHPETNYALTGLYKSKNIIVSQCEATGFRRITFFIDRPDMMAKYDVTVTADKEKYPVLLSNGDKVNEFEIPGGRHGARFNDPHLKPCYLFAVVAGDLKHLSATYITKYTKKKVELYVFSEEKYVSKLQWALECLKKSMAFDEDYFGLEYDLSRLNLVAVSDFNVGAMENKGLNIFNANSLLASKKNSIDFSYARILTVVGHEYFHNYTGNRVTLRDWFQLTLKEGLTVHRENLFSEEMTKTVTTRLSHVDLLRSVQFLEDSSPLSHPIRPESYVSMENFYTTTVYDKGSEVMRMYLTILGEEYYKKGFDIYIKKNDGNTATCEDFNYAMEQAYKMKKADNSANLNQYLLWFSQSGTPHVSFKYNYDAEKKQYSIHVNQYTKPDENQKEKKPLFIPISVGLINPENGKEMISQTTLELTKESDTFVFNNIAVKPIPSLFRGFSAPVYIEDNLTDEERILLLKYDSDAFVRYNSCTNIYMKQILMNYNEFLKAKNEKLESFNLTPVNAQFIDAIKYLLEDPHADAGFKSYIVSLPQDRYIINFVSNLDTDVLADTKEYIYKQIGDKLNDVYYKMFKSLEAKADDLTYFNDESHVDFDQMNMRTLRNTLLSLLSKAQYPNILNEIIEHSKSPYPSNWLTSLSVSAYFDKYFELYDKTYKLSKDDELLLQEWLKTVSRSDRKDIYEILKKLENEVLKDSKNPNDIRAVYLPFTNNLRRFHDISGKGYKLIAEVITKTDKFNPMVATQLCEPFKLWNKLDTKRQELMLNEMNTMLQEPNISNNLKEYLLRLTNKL
About 910 (0.41%) of roughly 220,000 compounds were called active. The sample holds actives, similar compounds and a random draw of the others, so the mix is not that of the screen. Measured potencies and affinities stand elsewhere.
Reported inhibition values are given for each entry in this list.
State the answer as a number, implicitly in %.

Answered cases to consult:
compound: Cc1csc(SCC(=O)NC2CCCCC2)n1
resultUnits: %
measValue: -5.21
--
compound: CCN(CC)CC(=O)Nc1cccc2c1C(=O)c1ccccc1C2=O
resultUnits: %
measValue: 5.73
--
compound: Cc1ccc(-c2nnn(CC(=O)N(Cc3ccco3)C(C(=O)NC3CCCC3)c3cccs3)n2)o1 (stereo not given)
resultUnits: %
measValue: 0.46
--
compound: COc1cc(NC(=O)Cc2cccs2)ccc1-n1cnnn1
resultUnits: %
measValue: 4.02
--
compound: Nc1c(C(=O)N2CCOCC2)sc(=S)n1-c1ccccc1
resultUnits: %
measValue: 24.9

Ask: inhibition for COCCn1c(SCC#N)nnc1-c1ccc2c(c1)OCO2 ?
Result: -1.51

Ask: inhibition for CCOc1cc(/C=C2/SC(=O)N(CC(=O)N3CCc4ccccc4C3)C2=O)ccc1OCC(=O)O ?
Result: 12.8

Ask: inhibition for CCOC(=O)c1coc(CNC(=O)c2c(C)oc3c2CCCC3)c1 ?
Result: 4.14

Ask: inhibition for O=[N+]([O-])c1ccc(Oc2c(F)c(F)nc(N3CCCC3)c2F)cc1 ?
Result: 1.61

Ask: inhibition for Cc1oc2c(C)c3oc(=O)c4c(c3cc2c1C)CCC4 ?
Result: 9.19

Ask: inhibition for CCn1c(SCC(=O)Nc2ccccc2C)nc2nc3c(cc2c1=O)COC(C)(C)C3 ?
Result: 13.2

Ask: inhibition for COc1cc(/C=C(/C#N)c2nc(-c3cc4ccccc4oc3=O)cs2)cc([N+](=O)[O-])c1O ?
Result: 11

Ask: inhibition for N#C/C(=C\c1ccc(O)c(O)c1)S(=O)(=O)c1ccccc1 ?
Result: 24.6
